Record form. Attribute: cytotoxicity at 70.5 h. Fill in for each entry.
Experiment: Human HepG2 cell viability assay in 384 well format
Format: toxicity, cell-based
Set-up: dose 125 nL, time 70.5 hour; concentration not given beside the values
Conditions: HepG2 cells, read-out: Inhibition
Answers are plain numbers, in %.

{"Compound": "COc1ccc(CSc2nnc(N)n2C2CC2)cc1Cl", "cytotoxicity at 70.5 h (%)": -8.32}
{"Compound": "O=C(Cn1cccn1)N1CCC(c2nnc(C(F)(F)F)o2)CC1", "cytotoxicity at 70.5 h (%)": 30.9}

Here are 2 compounds. What values of cytotoxicity at 70.5 h were reported for them?
1. CC(C)S(=O)(=O)C(C)C(=O)NCc1ccccc1OCc1ccccc1 (centres undefined)
2. COc1cccc(CNCc2c(C)nc3sc(C)cn23)c1OC

Found:
1: -1.68; 2: -1.69

* * *

Experiment: Human HepG2 cell viability assay in 384 well format
Assay type: toxicity, cell-based
Set-up: dose 125 nL, time 70.5 hour; concentration not given beside the values
Details: HepG2 cells, read-out: Inhibition
For each entry below, report its cytotoxicity at 70.5 h value.
One number for each entry, in %.

# example entries with known answers
{"Compound": "CCOc1cc(=O)n2c(c1C(=O)OCc1ccc(F)cc1)CCCC2", "Recorded Measurement": -8.82}
{"Compound": "Cc1cc(C)n(CC2CCCN2C(=O)c2ccc3c(c2)COC3)n1 (stereo not given)", "Recorded Measurement": -13.3}
{"Compound": "CCC(=O)N1CCC2(CC1)CNC(=O)c1cc(C)ccc1O2", "Recorded Measurement": -1.62}
{"Compound": "Cc1nccnc1CN1CCC2(CCCN(C3CCOCC3)C2=O)C1 (stereo not given)", "Recorded Measurement": -2.69}
{"Compound": "Cc1n[nH]c2c1C(c1ccc3c(c1)OCO3)SCC(=O)N2 (stereo not given)", "Recorded Measurement": 25.4}
{"Compound": "COc1ccc(Cl)cc1S(=O)(=O)N(C)CC(N)=O", "Recorded Measurement": -5}
{"Compound": "COc1ccc(NC(=O)CCN2CC=C(c3cnn(C)c3)CC2)cc1Cl", "Recorded Measurement": 5.66}
{"Compound": "CC(C)(C)OC(=O)N1CCC(C(=O)NCCNc2ncccn2)CC1", "Recorded Measurement": -7.43}

Here are 2 compounds. What values of cytotoxicity at 70.5 h were reported for them?
1. CCOCC(=O)N1CCC(c2nccn2C)CC1
2. Cc1cc(C)n(C2CCCN(C(=O)c3ccc(F)cc3F)C2)n1 (stereo not given)

Found:
1. 2.76
2. -0.896

Items follow; give cytotoxicity at 70.5 h for each.
1. CN(CCC#N)C(=O)CN1CCCC1c1ccsc1 (stereo not given)
2. O=C1NCCN1C1CCN(Cc2nc(-c3ccccc3)no2)CC1
3. Cc1ncc2c(n1)CN(Cc1noc(C3CC3)n1)CC2
4. c1cncc(OC[C@]23COC[C@H]2CN(Cc2ccsc2)C3)c1
5. CN1CCN([C@@H]2CN(C(=O)Cc3ccsc3)[C@@H]3CCCO[C@H]23)CC1
6. NC(=O)CN1CCC(C(=O)N2CCCC(OCc3cccnc3)C2)CC1 (stereo not given)
7. CCn1ncnc1CN1CCC(CNC(=O)c2ccccc2C#N)C1 (stereo not given)
8. CN(Cc1cncnc1)[C@@H]1CN(C(=O)C2CC2)[C@@H]2CCCO[C@H]12

Found:
[22.4, 13.9, 15.6, -129, -4.38, -11, 0.027, -3.07]

Dear reader, for each entry below, please note its cytotoxicity at 70.5 h.
1. Cc1cc(N2CCSCC2)ccc1NC(=O)N(CCO)C1CC1
2. Cc1cc(NC(=O)CNc2cccc(OC(F)F)c2C)n(C)n1

Found:
-5.59
-6.65

meta.source: ChEMBL document CHEMBL3507680
